EXPERIMENTAL READOUT: melting point

Examples with answers:
SMILES REPR | melting point
CCOC(=O)c1cc(-n2c(=O)cc(C)n(C)c2=O)ccc1Cl | 120 to 122 °C
COC(=O)c1cc(COC(C)=O)cc(-n2cccc2C#N)c1 | 85 to 86 °C
Oc1cnc2c(O)cccc2c1 | 139 to 141 °C
CC(C)(/C=C\F)C(=O)Nc1ccc(Br)cc1 | 87 to 90 °C
CC(C)CNc1cccnc1N1CCN(C(=O)c2ccc(C(=O)NC(C)(C)CO)cn2)CC1 | 140 to 143 °C

So what does the record say about melting point for N#Cc1c(-c2ccc(Cl)cc2)[nH]c([N+](=O)[O-])c1Br ?
180 to 185 °C

----------
Recorded melting point values for a group of compounds are listed next.

Examples with answers:
COMPOUND | melting point
O=C(O)c1ccc(-c2nc3cc(Cl)c(Cl)cc3[nH]2)cc1 | > 250 °C
CCOC(=O)C(=NOCSC)c1csc(NC=O)n1 | 130 to 131 °C
COc1cc2c(cc1OC)CN(CCCSc1ccc(NC(=O)c3cccc4c(=O)c5ccccc5[nH]c34)cc1)CC2 | 182 °C
CC(C)(C)OC(=O)N1C[C@@H](Oc2ccc(N)cc2)C[C@@H]1C(=O)Nc1cc(C(C)(C)C)c(O)c(C(C)(C)C)c1 | 104 to 106 °C

So what does the record say about melting point for Cc1cc(CNC(=O)c2cc(-c3ccc(C(C)(C)C)cc3)n(Cc3ccccc3)n2)ccc1OC(C)(C)C(=O)O ?
88 °C

So what does the record say about melting point for FC(F)(F)c1cccc(-c2ccnc3c(Br)cnn23)c1 ?
138 to 140 °C

So what does the record say about melting point for O=C1NCCNC1c1cn(Cc2ccccc2Cl)c2ccccc12 (centres undefined) ?
181 °C

So what does the record say about melting point for CCCc1c(-c2ccccc2)nc2n1CCc1ccccc1C2OC1CCN(C)CC1 (centres undefined) ?
144 °C

So what does the record say about melting point for COCCNC(=O)c1cc2c(nc(C)n2C)c2c1CCC1(Cc3ccccc3C1)N2 ?
186 to 187 °C

----------
Recorded melting point values for a group of compounds are listed next.

Examples with answers:
COMPOUND | melting point
CNCC1(O)c2ccccc2C=Cc2ccccc21 | 112 to 114 °C
C#CCCC(O)=C(C#N)C(=O)Nc1ccc(C(F)(F)F)cc1 | 172 °C
COC(=O)C(c1ccc(Cl)cc1)C(OC)OC (stereo not drawn) | 61 to 62 °C

So what does the record say about melting point for CC(=O)c1nc(C)n2c1CN=C(c1ccccc1Cl)c1cc(Cl)ccc1-2 ?
234 to 236 °C

So what does the record say about melting point for COCCOc1c(F)c(Oc2ccc(S(C)(=O)=O)nc2)cc2cc(C3=NCC(CC(N)=O)S3)[nH]c12 (stereo not drawn) ?
143 to 144 °C

So what does the record say about melting point for COc1ccc(S(=O)(=O)Nc2ccccc2NC(=O)c2ccc(F)cc2)cc1 ?
169 to 170 °C

So what does the record say about melting point for CC(=O)OCCCn1nc(-c2cc(C(C)(C)C)c(O)c(C(C)(C)C)c2)c2cccnc21 ?
75 to 77 °C

So what does the record say about melting point for CC(NC(=O)CBr)c1ccccc1 (stereo not drawn) ?
60 to 61 °C

So what does the record say about melting point for CCCOc1ccc(C(=O)CBr)cc1-c1nc2c(CCC)nn(C)c2c(=O)[nH]1 ?
136 to 137 °C

So what does the record say about melting point for S=[PH2]CCC(c1ccccc1)(c1ccccc1)c1ccccc1 ?
88 °C

So what does the record say about melting point for Cc1ccc2nc(-c3cc(C(F)F)nn3-c3ccc(S(C)(=O)=O)cc3)sc2c1 ?
183 to 184 °C

So what does the record say about melting point for COc1cc(OC)cc(N2CCN(C(=O)Nc3cc(C(C)OC(=O)CCC(=O)O)c(C)nc3OC)CC2)c1 (stereo not drawn) ?
158 to 160 °C
